- Tested on: pepsin and trypsin
- assay overview: Stability in simulated gastrointestinal (GI) digestion, read out as O2−· scavenging activity
- test conditions: 2 h of pepsin digestion, peptide 5.0 mg/mL
Where a SMILES comes first, the peptide text is derived from it.
value type: Declined percentage of O2−· scavenging activity, Treated with Pepsin (%)

C[C@H](N)C(=O)N[C@@H](CCCNC(=N)N)C(=O)N[C@@H](Cc1c[nH]c2ccccc12)C(=O)O [MSP8, Ala-Arg-Trp] (H-Ala-Arg-Trp-OH) = −24.93
NCCCC[C@H](NC(=O)CNC(=O)CNC(=O)[C@H](CC(=O)O)NC(=O)[C@@H](N)CC(=O)O)C(=O)O [MSP10, Asp-Asp-Gly-Gly-Lys] (H-DDGGK-OH) = −21.98
N=C(N)NCCC[C@H](NC(=O)CN)C(=O)N[C@@H](Cc1c[nH]c2ccccc12)C(=O)O [MSP7, Gly-Arg-Trp] (H-Gly-Arg-Trp-OH) = −24.34
NC(=O)CC[C@H](N)C(=O)N[C@@H](CC(=O)O)C(=O)N[C@@H](Cc1ccc(O)cc1)C(=O)N[C@@H](CC(=O)O)C(=O)O [MSP2, Gln-Asp-Tyr-Asp] (H-QDYD-OH) = −15.13
